# Tested on: TTR
# ASSAY DETAILS: TTR editing in HepG2 cells transfected with Spy Cas9 mRNA and dgRNAs (Table 6)
# Type: cell-based, human
# TEST CONDITIONS: HepG2 cells co-transfected with Spy Cas9 mRNA (SEQ ID NO:2) and dgRNAs
So basically, if Avg % Insert comes in under 20% it's Criterion met, and if it's 20% or more it's Criterion not met.

Worked set:
ACACAAAUACCAGUCCAGCA (tested as dual guide RNA, chemistry not given here) [CR003339]: Criterion met
CCUCUGCAUGCUCAUGGAAU (tested as dual guide RNA, chemistry not given here) [CR003370]: Criterion not met
GCAGGGCGGCAAUGGUGUAG (tested as dual guide RNA, chemistry not given here) [CR003380]: Criterion met
CCGUGGUGGAAUAGGAGUAG (tested as dual guide RNA, chemistry not given here) [CR003386]: Criterion met
AGGCAGUCCUGCCAUCAAUG (tested as dual guide RNA, chemistry not given here) [CR003348]: Criterion met
AUGCAGCUCUCCAGACUCAC (tested as dual guide RNA, chemistry not given here) [CR003358]: Criterion not met

Inquiry: Is Avg % Insert strictly under 20% for the entry CCUCCUCUGCCUUGCUGGAC (tested as dual guide RNA, chemistry not given here) [CR003336] ?
Reply text: Criterion not met

Inquiry: Is Avg % Insert strictly under 20% for the entry GAAAGGCUGCUGAUGACACC (tested as dual guide RNA, chemistry not given here) [CR003352] ?
Reply text: Criterion not met

Inquiry: Is Avg % Insert strictly under 20% for the entry CCCCUACUCCUAUUCCACCA (tested as dual guide RNA, chemistry not given here) [CR003385] ?
Reply text: Criterion not met

Inquiry: Is Avg % Insert strictly under 20% for the entry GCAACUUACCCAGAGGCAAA (tested as dual guide RNA, chemistry not given here) [CR003356] ?
Reply text: Criterion met

Inquiry: Is Avg % Insert strictly under 20% for the entry AGCCUUUCUGAACACAUGCA (tested as dual guide RNA, chemistry not given here) [CR003351] ?
Reply text: Criterion not met

Inquiry: Is Avg % Insert strictly under 20% for the entry AAUGGUGUAGCGGCGGGGGC (tested as dual guide RNA, chemistry not given here) [CR003375] ?
Reply text: Criterion met

Inquiry: Is Avg % Insert strictly under 20% for the entry UAUAGGAAAACCAGUGAGUC (tested as dual guide RNA, chemistry not given here) [CR005305] ?
Reply text: Criterion met

Inquiry: Is Avg % Insert strictly under 20% for the entry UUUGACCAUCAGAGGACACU (tested as dual guide RNA, chemistry not given here) [CR003344] ?
Reply text: Criterion not met
